- ASSAYED TARGET: T1, CD66c (Cluster of Differentiation 66c) on cells (UniProt P40199 35-320, limits assumed)
- T1 construct: whole, on cells; also called CEACAM6; CEACAM 6
- T1 sequence (looked up): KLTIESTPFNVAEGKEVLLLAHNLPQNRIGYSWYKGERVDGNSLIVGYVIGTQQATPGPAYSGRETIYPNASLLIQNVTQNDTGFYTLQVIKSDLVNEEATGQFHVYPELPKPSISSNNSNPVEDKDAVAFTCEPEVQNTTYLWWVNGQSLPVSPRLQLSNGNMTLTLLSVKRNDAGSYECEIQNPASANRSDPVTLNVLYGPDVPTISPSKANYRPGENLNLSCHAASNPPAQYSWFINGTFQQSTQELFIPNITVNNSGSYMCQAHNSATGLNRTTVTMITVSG
- EXPERIMENTAL DETAILS: flow cytometry on CD66c-positive A549 cells, FITC anti-human IgG
Assignment: determine reported Mean (fluorescence) for the given binders.
Give bare numbers.

1) recombinant humanized anti-CD66c antibody Protein ID 3058 (Vk8 + VH11) (antibody, human IgG1, V domains shown, also called hu 3058; #86) VH: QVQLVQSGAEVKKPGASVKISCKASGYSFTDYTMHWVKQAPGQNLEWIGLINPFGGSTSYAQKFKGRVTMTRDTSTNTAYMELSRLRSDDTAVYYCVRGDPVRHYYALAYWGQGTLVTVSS VL: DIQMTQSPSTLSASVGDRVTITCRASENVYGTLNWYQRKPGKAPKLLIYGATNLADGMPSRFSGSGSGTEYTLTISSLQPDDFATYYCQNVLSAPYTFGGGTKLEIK = 645

Please state Mean (fluorescence) for every binder in the list that follows.
1. recombinant humanized anti-CD66c antibody Protein ID 2938 (Vk5 + VH7) (antibody, human IgG1, V domains shown, also called hu 2938) VH: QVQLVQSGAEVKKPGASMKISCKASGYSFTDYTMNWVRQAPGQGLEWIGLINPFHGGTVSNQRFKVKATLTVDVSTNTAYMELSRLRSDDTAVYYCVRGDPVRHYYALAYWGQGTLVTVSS VL: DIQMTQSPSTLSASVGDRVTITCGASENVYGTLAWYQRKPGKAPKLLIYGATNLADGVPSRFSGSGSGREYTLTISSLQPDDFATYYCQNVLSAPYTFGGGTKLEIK
2. recombinant humanized anti-CD66c antibody Protein ID 3019 (Vk7 + VH10) (antibody, human IgG1, V domains shown, also called hu 3019; #51) VH: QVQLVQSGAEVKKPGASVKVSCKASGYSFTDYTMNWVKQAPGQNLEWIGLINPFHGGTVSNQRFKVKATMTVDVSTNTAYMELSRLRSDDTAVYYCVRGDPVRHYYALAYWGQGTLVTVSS VL: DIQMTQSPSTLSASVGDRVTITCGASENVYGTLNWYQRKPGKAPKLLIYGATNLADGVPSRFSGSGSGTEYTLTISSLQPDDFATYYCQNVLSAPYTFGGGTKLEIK
3. anti-CD66c chimeric antibody 8F5 (antibody, human IgG1, V domains shown, also called chimeric 8F5; chi 8F5) VH: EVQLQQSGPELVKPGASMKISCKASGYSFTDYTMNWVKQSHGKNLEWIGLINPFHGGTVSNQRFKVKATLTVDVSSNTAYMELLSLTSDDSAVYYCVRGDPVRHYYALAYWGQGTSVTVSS VL: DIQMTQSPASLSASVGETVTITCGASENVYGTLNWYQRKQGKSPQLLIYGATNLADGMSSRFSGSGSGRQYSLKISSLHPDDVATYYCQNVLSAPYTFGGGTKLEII
4. recombinant humanized anti-CD66c antibody Protein ID 3046 (Vk8 + VH7) (antibody, human IgG1, V domains shown, also called #74) VH: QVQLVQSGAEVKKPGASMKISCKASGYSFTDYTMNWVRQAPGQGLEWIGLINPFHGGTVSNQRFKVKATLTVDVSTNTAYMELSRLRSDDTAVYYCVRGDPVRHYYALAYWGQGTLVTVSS VL: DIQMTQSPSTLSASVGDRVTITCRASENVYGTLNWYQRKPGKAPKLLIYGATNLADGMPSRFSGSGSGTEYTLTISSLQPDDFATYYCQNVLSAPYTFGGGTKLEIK
5. recombinant humanized anti-CD66c antibody Protein ID 3007 (Vk7 + VH6) (antibody, human IgG1, V domains shown, also called hu 3007; #43) VH: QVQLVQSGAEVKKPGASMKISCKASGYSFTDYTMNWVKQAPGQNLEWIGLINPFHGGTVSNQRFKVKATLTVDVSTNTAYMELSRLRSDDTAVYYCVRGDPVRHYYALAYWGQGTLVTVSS VL: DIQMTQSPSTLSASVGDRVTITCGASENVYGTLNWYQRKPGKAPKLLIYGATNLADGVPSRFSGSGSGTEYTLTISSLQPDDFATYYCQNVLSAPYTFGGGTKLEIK
6. recombinant humanized anti-CD66c antibody Protein ID 3010 (Vk7 + VH7) (antibody, human IgG1, V domains shown, also called #45) VH: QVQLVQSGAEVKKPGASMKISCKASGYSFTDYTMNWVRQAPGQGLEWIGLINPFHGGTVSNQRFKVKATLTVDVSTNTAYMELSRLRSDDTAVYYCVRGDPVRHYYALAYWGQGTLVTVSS VL: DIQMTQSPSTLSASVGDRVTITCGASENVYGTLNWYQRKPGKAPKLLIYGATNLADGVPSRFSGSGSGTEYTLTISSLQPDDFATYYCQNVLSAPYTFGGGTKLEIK
7. recombinant humanized anti-CD66c antibody Protein ID 3043 (Vk8 + VH6) (antibody, V domains shown, also called hu 3043; #71) VH: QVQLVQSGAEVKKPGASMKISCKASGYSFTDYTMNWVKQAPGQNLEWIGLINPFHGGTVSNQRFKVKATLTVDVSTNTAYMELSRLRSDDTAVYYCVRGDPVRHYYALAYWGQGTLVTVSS VL: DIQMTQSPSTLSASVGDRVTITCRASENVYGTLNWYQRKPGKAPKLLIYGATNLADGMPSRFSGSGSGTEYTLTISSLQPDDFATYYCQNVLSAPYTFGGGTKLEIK
8. recombinant humanized anti-CD66c antibody Protein ID 3004 (Vk7 + VH5) (antibody, human IgG1, V domains shown, also called #41) VH: QVQLVQSGAEVKKPGASVKISCKASGYSFTDYTMNWVRQAHGQNLEWIGLINPFHGGTVSNQRFKVKATLTVDVSTNTAYMELSRLRSDDTAVYYCVRGDPVRHYYALAYWGQGTLVTVSS VL: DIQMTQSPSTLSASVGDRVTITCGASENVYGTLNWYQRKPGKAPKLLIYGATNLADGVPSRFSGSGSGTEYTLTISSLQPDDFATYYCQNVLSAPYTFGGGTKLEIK

Response:
1. 611
2. 561
3. 619
4. 523
5. 565
6. 554
7. 686
8. 541
